# Test system: RD-ES
# test_summary: relative viability vs DMSO control (72 h) (fraction); higher = more viable cells
# test_parameters: 0.01372 µM
relative viability values by entry

molecule	relative viability
CO[C@H]1C[C@@H]2CC[C@@H](C)[C@@](O)(O2)C(=O)C(=O)N2CCCC[C@H]2C(=O)O[C@H]([C@H](C)C[C@@H]2CC[C@@H](OC(=O)C(C)(CO)CO)[C@H](OC)C2)CC(=O)[C@H](C)/C=C(\C)[C@@H](O)[C@@H](OC)C(=O)[C@H](C)C[C@H](C)/C=C/C=C/C=C/1C	0.687
CS(=O)(=O)CCNCc1ccc(-c2ccc3ncnc(Nc4ccc(OCc5cccc(F)c5)c(Cl)c4)c3c2)o1	0.963
C#Cc1cccc(Nc2ncnc3cc4c(cc23)OCCOCCOCCO4)c1	0.991
CNC(=O)c1c(C)oc2cc(Oc3ncnc4cc(OC)c(OC)cc34)ccc12	0.971
COc1cc2ncnc(Nc3ccc(F)c(Cl)c3)c2cc1OCCCN1CCOCC1	0.97
O=C(/C=C\n1cnc(-c2cc(C(F)(F)F)cc(C(F)(F)F)c2)n1)NNc1cnccn1 [Selinexor]	0.949
CCOc1cc2ncc(C#N)c(Nc3ccc(OCc4ccccn4)c(Cl)c3)c2cc1NC(=O)/C=C/CN(C)C	0.997

----------
# Tested on: SYO-1
# test_summary: relative viability vs DMSO control (72 h) (fraction); higher = more viable cells
# test_parameters: 0.00017 µM
measured_attribute: relative viability

compound	observed_measurement
CCS(=O)(=O)N1CC(CC#N)(n2cc(-c3ncnc4[nH]ccc34)cn2)C1	0.994
CNC(=O)c1cccc2cc(Oc3ccnc4cc(OCC5(N)CC5)c(OC)cc34)ccc12	1.03
O=S(=O)(c1cccc2c(O)nccc12)N1CCCNCC1 [Hydroxyfasudil]	1
C=CC(=O)N1CCC(CNc2ncnc(N)c2-c2ccc(Oc3ccccc3)cc2)CC1	1.02
O=C(/C=C\n1cnc(-c2cc(C(F)(F)F)cc(C(F)(F)F)c2)n1)NNc1cnccn1 [Selinexor]	1.02
C[C@@H]1CN(C(=O)c2ccc(NC(=O)c3cc(O[C@H](C)c4c(Cl)ccc(F)c4Cl)c(N)nn3)cc2)C[C@H](C)N1	1.02
O=C(c1ccc(F)c(F)c1Nc1ccc(I)cc1F)N1CC(O)([C@@H]2CCCCN2)C1	0.985
COc1cc(N2CCC(N3CCN(C)CC3)CC2)ccc1Nc1ncc(Cl)c(Nc2ccccc2P(C)(C)=O)n1	0.95

----------
relative viability values by entry
# Test system: A204
# test_summary: relative viability vs DMSO control (72 h) (fraction); higher = more viable cells
# test_parameters: 0.00457 µM

smiles_representation	relative viability
C[C@@H]1CN(C(=O)c2ccc(NC(=O)c3cc(O[C@H](C)c4c(Cl)ccc(F)c4Cl)c(N)nn3)cc2)C[C@H](C)N1	1.05
CN(C)C(=O)c1cc2cnc(Nc3ccc(N4CCNCC4)cn3)nc2n1C1CCCC1	1.09
Cn1cnc2c(F)c(Nc3ccc(Br)cc3Cl)c(C(=O)NOCCO)cc21	1.05
CNC(=O)c1c(C)oc2cc(Oc3ncnc4cc(OC)c(OC)cc34)ccc12	1.05
Cc1cc(F)c(C(=O)Nc2cccc(-c3nncn3C(C)C)n2)cc1-n1cnc(C2CC2)c1	1.09
CS(=O)(=O)CCNCc1ccc(-c2ccc3ncnc(Nc4ccc(OCc5cccc(F)c5)c(Cl)c4)c3c2)o1	1.07

----------
relative viability values by entry
# Tested on: MES-SA
# test_summary: relative viability vs DMSO control (72 h) (fraction); higher = more viable cells
# test_parameters: 0.00051 µM
measured_attribute: relative viability

smiles_representation	experimental_system	measured_attribute	observed_measurement
CS(=O)(=O)CCNCc1ccc(-c2ccc3ncnc(Nc4ccc(OCc5cccc(F)c5)c(Cl)c4)c3c2)o1	MES-SA	relative viability	0.918
COC(=O)c1ccc2c(c1)NC(=O)/C2=C(\Nc1ccc(N(C)C(=O)CN2CCN(C)CC2)cc1)c1ccccc1	MES-SA	relative viability	0.93
Cc1c2oc3c(C)ccc(C(=O)N[C@@H]4C(=O)N[C@H](C(C)C)C(=O)N5CCC[C@H]5C(=O)N(C)CC(=O)N(C)[C@@H](C(C)C)C(=O)O[C@@H]4C)c3nc-2c(C(=O)N[C@@H]2C(=O)N[C@H](C(C)C)C(=O)N3CCC[C@H]3C(=O)N(C)CC(=O)N(C)[C@@H](C(C)C)C(=O)O[C@@H]2C)c(N)c1=O	MES-SA	relative viability	0.835
C=CC(=O)N1CCC(CNc2ncnc(N)c2-c2ccc(Oc3ccccc3)cc2)CC1	MES-SA	relative viability	0.962
C#Cc1cccc(Nc2ncnc3cc4c(cc23)OCCOCCOCCO4)c1	MES-SA	relative viability	0.945
Cn1cnc2c(F)c(Nc3ccc(Br)cc3Cl)c(C(=O)NOCCO)cc21	MES-SA	relative viability	0.89

----------
# Tested on: RD-ES
# test_summary: relative viability vs DMSO control (72 h) (fraction); higher = more viable cells
# test_parameters: 0.00457 µM
relative viability values by entry

compound	relative viability
C#Cc1cccc(Nc2ncnc3cc4c(cc23)OCCOCCOCCO4)c1 [Icotinib]	1.01
O=C(c1ccc(F)c(F)c1Nc1ccc(I)cc1F)N1CC(O)([C@@H]2CCCCN2)C1 [Cobimetinib]	0.986
COC(=O)c1ccc2c(c1)NC(=O)/C2=C(\Nc1ccc(N(C)C(=O)CN2CCN(C)CC2)cc1)c1ccccc1 [Nintedanib]	0.958
C[C@@H]1CN(C(=O)c2ccc(NC(=O)c3cc(O[C@H](C)c4c(Cl)ccc(F)c4Cl)c(N)nn3)cc2)C[C@H](C)N1 [Ensartinib]	0.963
Cc1cc2c(F)c(Oc3ncnn4cc(OC[C@@H](C)OC(=O)[C@H](C)N)c(C)c34)ccc2[nH]1 [Brivanib_alaninate]	0.983
CNC(=O)c1c(C)oc2cc(Oc3ncnc4cc(OC)c(OC)cc34)ccc12 [Fruquintinib]	0.952
CN(C)C/C=C/C(=O)Nc1cc2c(Nc3ccc(F)c(Cl)c3)ncnc2cc1O[C@H]1CCOC1 [Afatinib]	0.973
Cn1cnc2c(F)c(Nc3ccc(Br)cc3Cl)c(C(=O)NOCCO)cc21 [Selumetinib]	0.985

----------
# Test system: KHOS-240S
# test_summary: relative viability vs DMSO control (72 h) (fraction); higher = more viable cells
# test_parameters: 0.3704 µM
measured_attribute: relative viability

smiles_representation	measured_attribute	observed_measurement
CC(=O)c1c(C)c2cnc(Nc3ccc(N4CCNCC4)cn3)nc2n(C2CCCC2)c1=O	relative viability	0.843
Cc1cc(F)c(C(=O)Nc2cccc(-c3nncn3C(C)C)n2)cc1-n1cnc(C2CC2)c1	relative viability	1.06
C#Cc1cccc(Nc2ncnc3cc4c(cc23)OCCOCCOCCO4)c1	relative viability	1.09
CN(C)C/C=C/C(=O)Nc1cc2c(Nc3ccc(F)c(Cl)c3)ncnc2cc1O[C@H]1CCOC1	relative viability	0.991

----------
# System: MES-SA
# test_summary: standardised AUC of viability dose-response curve (72 h) (fraction (0-1)); higher = less growth inhibition (more resistant)
standardised AUC values by entry

smiles_representation	standardised AUC
O=C(c1ccc(F)c(F)c1Nc1ccc(I)cc1F)N1CC(O)([C@@H]2CCCCN2)C1	0.909
CCc1nc(C(N)=O)c(Nc2ccc(N3CCC(N4CCN(C)CC4)CC3)c(OC)c2)nc1NC1CCOCC1	0.785
Cc1c2oc3c(C)ccc(C(=O)N[C@@H]4C(=O)N[C@H](C(C)C)C(=O)N5CCC[C@H]5C(=O)N(C)CC(=O)N(C)[C@@H](C(C)C)C(=O)O[C@@H]4C)c3nc-2c(C(=O)N[C@@H]2C(=O)N[C@H](C(C)C)C(=O)N3CCC[C@H]3C(=O)N(C)CC(=O)N(C)[C@@H](C(C)C)C(=O)O[C@@H]2C)c(N)c1=O	0.258
COc1cc(Nc2ncc3c(n2)-c2ccc(Cl)cc2C(c2c(F)cccc2OC)=NC3)ccc1C(=O)O	0.678

----------
# Test system: A204
# test_summary: relative viability vs DMSO control (72 h) (fraction); higher = more viable cells
# test_parameters: 0.01372 µM
relative viability values by entry
measured_attribute: relative viability

smiles_representation	experimental_system	observed_measurement
Cc1c2oc3c(C)ccc(C(=O)N[C@@H]4C(=O)N[C@H](C(C)C)C(=O)N5CCC[C@H]5C(=O)N(C)CC(=O)N(C)[C@@H](C(C)C)C(=O)O[C@@H]4C)c3nc-2c(C(=O)N[C@@H]2C(=O)N[C@H](C(C)C)C(=O)N3CCC[C@H]3C(=O)N(C)CC(=O)N(C)[C@@H](C(C)C)C(=O)O[C@@H]2C)c(N)c1=O	A204	0.277
CS(=O)(=O)CCNCc1ccc(-c2ccc3ncnc(Nc4ccc(OCc5cccc(F)c5)c(Cl)c4)c3c2)o1	A204	1.06
Cn1cnc2c(F)c(Nc3ccc(Br)cc3Cl)c(C(=O)NOCCO)cc21	A204	0.988

Provenance of the data: the supplement of paper PMC10883282
